- tested.system: UniProt:Q00975
- Sequence (Q00975 whole entry): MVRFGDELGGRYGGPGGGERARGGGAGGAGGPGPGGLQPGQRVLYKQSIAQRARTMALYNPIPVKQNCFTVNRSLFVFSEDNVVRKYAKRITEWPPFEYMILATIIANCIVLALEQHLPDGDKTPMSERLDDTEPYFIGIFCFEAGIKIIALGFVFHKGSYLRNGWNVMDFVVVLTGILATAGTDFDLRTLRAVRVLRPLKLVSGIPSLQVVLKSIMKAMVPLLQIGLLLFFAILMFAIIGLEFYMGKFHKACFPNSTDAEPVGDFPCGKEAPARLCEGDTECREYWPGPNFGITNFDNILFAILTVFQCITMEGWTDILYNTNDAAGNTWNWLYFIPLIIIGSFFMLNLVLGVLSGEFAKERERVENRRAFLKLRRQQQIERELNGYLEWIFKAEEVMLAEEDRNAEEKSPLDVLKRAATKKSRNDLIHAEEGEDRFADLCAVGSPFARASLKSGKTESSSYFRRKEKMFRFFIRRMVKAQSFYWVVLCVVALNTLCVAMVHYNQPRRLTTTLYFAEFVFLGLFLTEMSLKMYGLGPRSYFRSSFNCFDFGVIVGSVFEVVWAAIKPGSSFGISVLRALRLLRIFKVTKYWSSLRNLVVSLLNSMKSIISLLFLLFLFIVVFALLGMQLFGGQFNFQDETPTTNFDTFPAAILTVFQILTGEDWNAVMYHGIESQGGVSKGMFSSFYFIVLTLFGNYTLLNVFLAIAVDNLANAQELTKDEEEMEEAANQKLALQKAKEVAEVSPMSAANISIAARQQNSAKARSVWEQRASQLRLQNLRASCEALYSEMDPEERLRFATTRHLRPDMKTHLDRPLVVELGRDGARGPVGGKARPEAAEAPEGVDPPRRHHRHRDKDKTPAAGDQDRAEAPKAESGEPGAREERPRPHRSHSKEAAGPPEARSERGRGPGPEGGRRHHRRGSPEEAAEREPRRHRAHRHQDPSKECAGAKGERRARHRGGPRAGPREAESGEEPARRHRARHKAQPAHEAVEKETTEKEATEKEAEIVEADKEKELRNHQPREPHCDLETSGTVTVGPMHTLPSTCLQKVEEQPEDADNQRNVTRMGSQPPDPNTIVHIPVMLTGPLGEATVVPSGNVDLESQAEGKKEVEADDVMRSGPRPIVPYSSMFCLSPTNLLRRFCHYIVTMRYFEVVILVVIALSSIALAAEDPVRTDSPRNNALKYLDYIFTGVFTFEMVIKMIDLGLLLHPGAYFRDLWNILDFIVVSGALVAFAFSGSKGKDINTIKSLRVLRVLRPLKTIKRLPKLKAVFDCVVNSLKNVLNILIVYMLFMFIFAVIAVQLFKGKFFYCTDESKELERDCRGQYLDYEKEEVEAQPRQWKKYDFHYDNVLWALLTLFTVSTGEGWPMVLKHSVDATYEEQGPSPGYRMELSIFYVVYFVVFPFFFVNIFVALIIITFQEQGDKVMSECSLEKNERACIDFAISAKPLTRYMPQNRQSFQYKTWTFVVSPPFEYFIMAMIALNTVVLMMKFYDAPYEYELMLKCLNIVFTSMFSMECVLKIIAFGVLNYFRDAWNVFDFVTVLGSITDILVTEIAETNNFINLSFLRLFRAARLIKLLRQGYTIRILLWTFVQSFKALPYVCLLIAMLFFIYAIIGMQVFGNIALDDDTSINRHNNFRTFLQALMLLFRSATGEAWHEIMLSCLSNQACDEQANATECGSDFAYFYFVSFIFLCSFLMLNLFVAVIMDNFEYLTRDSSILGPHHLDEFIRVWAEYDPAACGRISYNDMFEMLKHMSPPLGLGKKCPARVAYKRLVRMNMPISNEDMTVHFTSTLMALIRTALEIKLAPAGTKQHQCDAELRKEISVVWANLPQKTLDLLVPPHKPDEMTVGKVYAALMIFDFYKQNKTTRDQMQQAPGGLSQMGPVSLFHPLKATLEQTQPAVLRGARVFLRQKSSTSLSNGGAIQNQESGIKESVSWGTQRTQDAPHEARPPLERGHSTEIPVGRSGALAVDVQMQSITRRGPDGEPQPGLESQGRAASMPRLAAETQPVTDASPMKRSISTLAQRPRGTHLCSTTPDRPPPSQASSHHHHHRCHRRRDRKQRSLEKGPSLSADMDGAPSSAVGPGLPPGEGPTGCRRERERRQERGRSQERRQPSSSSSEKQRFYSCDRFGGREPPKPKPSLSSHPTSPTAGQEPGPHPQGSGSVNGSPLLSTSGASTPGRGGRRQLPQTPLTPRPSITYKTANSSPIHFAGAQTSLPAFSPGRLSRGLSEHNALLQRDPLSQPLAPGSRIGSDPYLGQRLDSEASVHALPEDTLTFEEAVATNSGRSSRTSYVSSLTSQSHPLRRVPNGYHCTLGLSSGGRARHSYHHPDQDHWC
- Sequence (P54289 25-946 partner limits assumed): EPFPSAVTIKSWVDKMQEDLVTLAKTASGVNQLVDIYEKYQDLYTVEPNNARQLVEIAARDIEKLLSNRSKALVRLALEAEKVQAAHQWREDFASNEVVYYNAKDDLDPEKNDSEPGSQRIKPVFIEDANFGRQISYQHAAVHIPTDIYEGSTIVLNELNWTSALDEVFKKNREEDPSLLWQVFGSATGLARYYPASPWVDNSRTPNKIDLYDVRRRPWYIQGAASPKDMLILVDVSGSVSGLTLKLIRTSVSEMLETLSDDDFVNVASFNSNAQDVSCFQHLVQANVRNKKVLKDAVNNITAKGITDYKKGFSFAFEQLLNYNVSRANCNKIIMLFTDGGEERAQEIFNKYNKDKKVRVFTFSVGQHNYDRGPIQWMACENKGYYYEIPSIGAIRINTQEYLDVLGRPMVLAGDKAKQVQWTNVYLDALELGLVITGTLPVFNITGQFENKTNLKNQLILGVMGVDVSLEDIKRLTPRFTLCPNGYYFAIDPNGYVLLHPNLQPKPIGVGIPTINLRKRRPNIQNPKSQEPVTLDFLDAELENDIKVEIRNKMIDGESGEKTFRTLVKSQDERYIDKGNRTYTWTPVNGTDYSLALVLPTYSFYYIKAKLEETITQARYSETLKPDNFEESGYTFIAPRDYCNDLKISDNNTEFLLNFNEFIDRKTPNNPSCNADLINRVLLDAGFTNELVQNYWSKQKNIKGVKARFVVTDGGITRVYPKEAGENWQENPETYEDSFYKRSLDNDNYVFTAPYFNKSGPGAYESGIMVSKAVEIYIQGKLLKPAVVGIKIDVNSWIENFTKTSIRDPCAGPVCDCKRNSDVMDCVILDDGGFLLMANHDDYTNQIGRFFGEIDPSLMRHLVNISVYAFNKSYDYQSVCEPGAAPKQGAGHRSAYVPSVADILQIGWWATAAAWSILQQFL
- Sequence (P54289 947-1103 partner limits assumed): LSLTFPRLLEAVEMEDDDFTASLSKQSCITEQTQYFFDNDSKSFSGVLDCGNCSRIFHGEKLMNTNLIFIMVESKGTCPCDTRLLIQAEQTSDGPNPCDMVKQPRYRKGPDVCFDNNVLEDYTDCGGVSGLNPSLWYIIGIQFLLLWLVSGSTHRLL
- Sequence (P54284 whole entry partner): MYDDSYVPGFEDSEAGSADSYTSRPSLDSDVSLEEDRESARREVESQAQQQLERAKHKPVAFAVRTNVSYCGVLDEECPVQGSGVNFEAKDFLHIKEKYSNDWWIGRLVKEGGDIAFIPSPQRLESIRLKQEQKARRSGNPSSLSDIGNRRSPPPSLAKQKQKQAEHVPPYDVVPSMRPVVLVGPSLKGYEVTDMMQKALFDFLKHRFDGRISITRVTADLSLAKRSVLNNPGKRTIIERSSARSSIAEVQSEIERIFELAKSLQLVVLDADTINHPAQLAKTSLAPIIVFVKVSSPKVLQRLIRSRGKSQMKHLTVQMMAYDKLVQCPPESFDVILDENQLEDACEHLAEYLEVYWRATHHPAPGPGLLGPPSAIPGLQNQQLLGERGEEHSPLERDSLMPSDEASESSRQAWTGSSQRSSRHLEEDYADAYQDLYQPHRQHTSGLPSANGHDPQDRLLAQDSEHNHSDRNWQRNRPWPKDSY
- assay.procedure: Assessment of calcium channel activity using FLIPR (Ca2+ influx in IMR32 cells)
- Type: cell-based
- reported.conditions: 60 minute pre-incubation with compound, 2 μM nifedipine, depolarized with 80 mM KCl
For each record, write down the corresponding IC50.
Numbers only, in µM.

structure.notation: CCN[C@H]1CC[C@@H]2CN(S(=O)(=O)c3ccc(C(F)(F)F)cc3)C[C@@H]21
tested.system: UniProt:Q00975
unit.annotation: µM
IC50: 10.4
//
structure.notation: O=C(N[C@H]1CC[C@H]2CN(CCCc3ccc(F)cc3)C[C@H]21)C(C1CCCCC1)C1CCCCC1
tested.system: UniProt:Q00975
unit.annotation: µM
IC50: 1.2
//
structure.notation: CCC[C@H](NC(C)C)C(=O)N[C@@H]1CC[C@H]2CN(S(=O)(=O)c3cccc(C(F)(F)F)c3)C[C@H]21
tested.system: UniProt:Q00975
unit.annotation: µM
IC50: 0.97
//
structure.notation: CN[C@@H](CC1CCCCC1)C(=O)N[C@H]1CC[C@@H]2CN(S(=O)(=O)c3ccc(C(F)(F)F)cc3)C[C@@H]21
tested.system: UniProt:Q00975
unit.annotation: µM
IC50: 6.45
//
structure.notation: CC[C@H](C)[C@@H](C(=O)N[C@H]1CC[C@@H]2CN(S(=O)(=O)c3ccc(C(F)(F)F)cc3)C[C@@H]21)N(C)C(=O)OC(C)(C)C
tested.system: UniProt:Q00975
unit.annotation: µM
IC50: 0.57

get_value(item= "CN[C@@H](CC(C)C)C(=O)N[C@@H]1CC[C@H]2CN(S(=O)(=O)c3ccc(F)c(F)c3)C[C@H]21" , readout=IC50) returns 7.96
